Data provenance is PubChem BioAssay (NCI).

# Tested on: SK-MEL-5 melanoma
# METHOD: NCI tumour cell line growth inhibition, 48 h
The following compounds are shown together with reported TGI values.
PROPERTY MEASURED: TGI

> print(dat)
                                    compound  property.measured    result
 1  CCN(CC)CCNC(=O)c1cc2cc(NC(=O)c3cc4cc(NC(=O)c5cc6cc(N)ccc6[nH]5)ccc4[nH]3)ccc2[nH]1                TGI  > 100 µM
 2  Cc1cc(S(=O)(=O)Nc2cc(N)[nH]n2)c(SCc2nc(N)nc(N(C)C)n2)cc1Cl                TGI   > 10 µM
 3  COC(=O)[C@@H]1CN(C(C)=O)C(=O)N1C(=O)OCc1ccccc1                TGI  > 100 µM
 4  COc1cc(C2C(C#N)=C(N)OC3=C2CCS(=O)(=O)c2ccc(C)cc23)cc(OC)c1OC (configuration not stated)                TGI  > 100 µM
 5            c1ccc(CNCCCCNCCCNCc2ccccc2)cc1                TGI   32.5 µM
 6         Cc1ccccc1-n1ncc(C(=O)c2ccccc2)c1N                TGI   > 25 µM
 7  CC1=CC[C@@]2(CO)[C@@H]([C@@H]1C)[C@H]1CC[C@@H]3[C@@]4(C)CC[C@H](O)C(C)(C)[C@@H]4CC[C@@]3(C)[C@]1(C)C[C@@H]2O                TGI   42.1 µM
 8   COc1cc(OC)c(/C=C\c2ccnc3ccccc23)c(OC)c1                TGI   5.88 µM
 9  O=C(CN(/C=C/C(=O)C(F)(F)F)c1ccc(Cl)cc1)c1ccccc1                TGI   27.7 µM
10  O=C(c1ccccc1)N1C2CCC1C(C(F)(F)F)=C2C(F)(F)F                TGI  > 100 µM
11               CN(N)c1cc(=O)[nH]c(=O)[nH]1                TGI  > 100 µM
12  Clc1cccc(Cl)c1C1CSc2ccccc2N=C1c1ccccc1 (configuration not stated)                TGI   18.1 µM
13  Nc1ccn(C2CCC(CO)O2)c(=S)n1 (configuration not stated)                TGI  > 100 µM
14  O=c1oc2ccccc2c(O)c1/C=N/C(=S)NCCc1ccccc1                TGI  > 100 µM
15        C=CCSC1=N/C(=C\c2cccs2)C(=O)N1CC=C                TGI  > 100 µM
16  NCCN1C(=O)CN=C(c2ccc(Cl)cc2)c2cc(Cl)ccc21                TGI   31.4 µM
17  COc1ccc2c(c1)[nH]c(=O)c1c3cc(OC)ccc3cn21                TGI  0.116 µM
18           CC1=NOC(=O)/C1=C/c1cccc2ccccc12                TGI  > 100 µM
19  CC(/C(=N\Nc1ccccc1)c1ccc(O)cc1)C1C(=O)Oc2ccccc21 (configuration not stated)                TGI  > 100 µM
20  COCCCNC(=O)C1=C(C)NC(C)=C(C(=O)NCCCOC)C1                TGI  > 100 µM
21  COC(=O)C(Cc1cc(OC)c(OC)c(OC)c1)c1ccc(OC)cc1 (configuration not stated)                TGI  > 100 µM
22  O=C1c2ccccc2C(=O)N1CCN(CCN1C(=O)c2ccccc2C1=O)Cn1cccn1                TGI  > 100 µM
